Values of pIC50 for IRAK4 (Homo sapiens (Human), UniProt Q9NWZ3), collected from a number of published sources:
Remember the convention: pIC50 equals -log10 of concentration in molar.

{"columns": ["CHEMICAL STRING", "pIC50"],
 "data": [
  ["c1nc(N[C@H]2CC[C@H](N3CCOCC3)CC2)c2cc(-c3cn[nH]c3)ccc2n1", 8.70],
  ["CC(C)(O)[C@H](F)CNC(=O)c1cnc(Nc2ccc3ncc(F)cc3n2)cc1NC1CCOCC1", 8.70],
  ["CC(C)(O)c1cncc(-c2ccc3ncnc(N[C@H]4CC[C@H](N5CCOCC5)CC4)c3c2)c1", 6.48]
]}

Request: Requested field: pIC50. Item: `CNC(=O)c1cnc2cc(-c3ccncc3)nn2c1NC(C)C`
Response: 6.39

---

Values of pIC50 for IRAK4 (Homo sapiens (Human), UniProt Q9NWZ3), collected from a number of published sources:
pIC50: −log10 of the molar value.

Here is how some compounds turned out for pIC50.
{"columns": ["COMPOUND", "pIC50"],
 "data": [
  ["CNS(=O)(=O)c1ccc(-n2cc(NC(=O)c3cnn4ccc(N5CCNCC5)nc34)c(C(N)=O)n2)cc1", 8.40],
  ["C=CC(=O)N1C[C@@H](c2nc(-c3ccc(NC(=O)c4cccc(-c5ccn[nH]5)n4)cc3)no2)CC(F)(F)C1", "< 5.00"],
  ["COC[C@H]1CCCN1C(=O)Cc1cn(-c2ccccc2)c(NC(=O)c2cccc(-c3cn[nH]c3)c2)n1", "< 7.00"],
  ["CNc1cc(-c2cccc(/C(C)=N\\O)n2)cc2c1cnn2-c1cccc(C)n1", "5.00 to 6.00"],
  ["CNC(=O)CCCc1cn(-c2ccc(F)cc2)c(NC(=O)c2cccc(-c3cn[nH]c3)c2)n1", "> 7.30"],
  ["CN(CC(=O)N1CCCC1)[C@H]1CC[C@H](Oc2ncnc3sc4c(c23)[C@@H](CC(N)=O)CC4)CC1", "> 5.30"]
]}

Request: Requested field: pIC50. Item: `O[C@H]1CC[C@H](Nc2nc(Nc3cnn(-c4ccncn4)c3)nc3ccsc23)CC1`
Response: 6.00 to 7.00

Request: Follow-up entry: `CS(=O)(=O)CCc1cn2cc(NC(=O)c3coc(-c4ccnc(N)c4)n3)c(-c3ccccc3)cc2n1`
Response: 8.74

Request: Follow-up entry: Cn1cc(-c2cccc(-c3ncc(-c4ccn(C)n4)c(N[C@@H]4CCC[C@@H](O)[C@H]4O)n3)c2)cn1 (racemic)
Response: > 7.00

Request: Follow-up entry: Cn1cc(-c2cccc(-c3ncc(-c4cnn(C)c4)c(N[C@@H]4CCC[C@@H](O)[C@H]4O)n3)c2)cn1 (racemic)
Response: > 7.00

Request: Follow-up entry: CC(C)Nc1cc(-n2ncc3cc(C#N)cnc32)ncc1-n1cc(C2CCC(NC(=O)OC(C)(C)C)CC2)nn1 (stereo not drawn)
Response: 8.70

Request: Follow-up entry: `O=C1Nc2nc3ccccc3n2Cc2ccc(O)c(c2)-c2ccc(=O)n(n2)Cc2cccc1c2`
Response: > 7.00

Request: Follow-up entry: COc1ccc(Nc2ncc(-c3nc4ccccc4s3)c(N[C@@H]3CC(C(C)(C)O)[C@@H](O)[C@H]3O)n2)c(OC)c1 (stereo in doubt)
Response: 7.22

Request: Follow-up entry: `CC(C)Nc1cc(-c2cnc3ccc(N)nn23)ncc1C(=O)NC[C@@H](F)C(C)(C)O`
Response: 7.92

Request: Follow-up entry: `O=C(Nc1nc(CCCC(=O)N2CCCCC2)cn1-c1ccccc1)c1cccc(-c2cn[nH]c2)c1`
Response: > 7.30

---

Values of IC50 for IRAK4 (Homo sapiens (Human)), collected from a number of published sources:

Here is how some compounds turned out for IC50.
{"columns": ["COMPOUND", "PROPERTY NAME", "EXPERIMENTAL RESULT"],
 "data": [
  ["CC(N)c1cccc(-c2ccc3cnn(-c4cccc(CO)n4)c3c2)c1 (centres unmarked)", "IC50", "0.1 to 1 µM"],
  ["CC(=O)NCc1cccc(-c2ccc3cnn(-c4cccc(C)n4)c3c2)n1", "IC50", "1 to 10 µM"],
  ["C=CC(=O)N1C[C@@H](c2nc(-c3ccc(NC(=O)c4cccc(-c5ccn[nH]5)n4)cc3)no2)C[C@H](C(F)(F)F)C1", "IC50", "> 10 µM"],
  ["Cn1cc(-c2cccc(C(=O)Nc3nc(CCCC(=O)NC4CCOC4)cn3-c3ccccc3)c2)cn1 (centres unmarked)", "IC50", "< 0.05 µM"],
  ["CC[C@@H]1[C@H](F)C(=O)N[C@@H]1COc1csc2cc(C(N)=O)c(OC)cc12", "IC50", "0.0004 µM"],
  ["Cn1cc(-n2ccc3nc(Nc4cccs4)nc(O[C@H]4CCOC4)c32)cn1", "IC50", "≤ 0.1 µM"]
]}

Request: Requested field: IC50. Item: Cn1cc(-c2cccc(-c3ncc(-c4cnn(C)c4)c(OCC4CCCO4)n3)c2)cn1 (centres unmarked)
Response: < 0.1 µM

Request: Follow-up entry: `CCNc1c(C(=O)NCCC(C)(C)O)cnc2ccc(-c3cncs3)cc12`
Response: 0.11 µM

---

Values of pIC50 for IRAK4 (Homo sapiens (Human), UniProt Q9NWZ3), collected from a number of published sources:
Remember the convention: pIC50 equals -log10 of concentration in molar.

Here is how some compounds turned out for pIC50.
{"columns": ["COMPOUND", "pIC50"],
 "data": [
  ["Cc1cnc2ccc(Nc3cc(NC(C)C)c(C(=O)NC[C@@H](F)C(C)(C)O)cn3)nn12", 8.44],
  ["CC(=O)NCCCCNC(=O)c1cnc(Nc2ccc3ncsc3c2)cc1NC(C)C", 8.28],
  ["CCCc1cn(-c2cnc(-n3cnc4cnc(N)nc43)cc2NC(C)C)nn1", 7.77],
  ["COc1cc(-c2ccc3ncnc(N[C@H]4CC[C@H](N(C)C)CC4)c3c2)ccn1", 7.60],
  ["CC(C)(O)[C@H](F)CNC(=O)c1cnc(-c2cnc3cc(C#N)cnn23)cc1N[C@@H]1CCN(c2ncc(F)cn2)C1", 8.05],
  ["CC(C)Nc1cc(Nc2ccc3ncsc3c2)ncc1-c1nc(C(N)=O)co1", 8.57],
  ["COc1cc2nn(C3CCOC3)cc2cc1NC(=O)c1cccc(C(F)(F)F)n1 (centres unmarked)", 8.00],
  ["CC(=O)N[C@H]1CC[C@H](NC(=O)c2cnc3ccc(-c4cccnc4)nc3c2NC(C)C)CC1", 7.50],
  ["CC(C)Nc1c(C(=O)NCCC2(CO)CC2)cnc2sc(-c3cncs3)cc12", 6.42]
]}

Let us move to another entry and its pIC50.
Request: Requested field: pIC50. Item: `CC(C)Nc1c(C(=O)NCCCn2ccnc2)cnc2ccc(-c3cn[nH]c3)cc12`
Response: 7.96

---

Values of IC50 for IRAK4 (Homo sapiens (Human)), collected from a number of published sources:
Numeric answer only, unit µM assumed.

Here is how some compounds turned out for IC50.
{"columns": ["CHEMICAL STRING", "UNIT ABBREVIATION", "IC50"],
 "data": [
  ["CNc1c(C(N)=O)cnc2ccc(-c3cn[nH]c3)cc12", "µM", 0.554],
  ["CC(C)Nc1cc(-n2ncc3cc(C#N)cnc32)ncc1-n1ccc(C#N)n1", "µM", 0.066]
]}

Let us move to another entry and its IC50.
Request: Requested field: IC50. Item: `CC(F)(F)Cn1cc(Nc2cc(-c3cnc4cc(C#N)cnn34)ncc2C(=O)NC[C@@H](F)C(C)(C)F)cn1`
Response: 0.002

---

Values of pIC50 for IRAK4 (Homo sapiens (Human), UniProt Q9NWZ3), collected from a number of published sources:
Remember the convention: pIC50 equals -log10 of concentration in molar.

Here is how some compounds turned out for pIC50.
{"columns": ["CHEMICAL STRING", "PROPERTY NAME", "EXPERIMENTAL RESULT"],
 "data": [
  ["CCC(=O)N1CCC(N2CC(n3cc(NC(=O)c4cccc(-c5cc[nH]n5)n4)c(C(F)F)n3)C2)CC1", "pIC50", 9.27],
  ["CC12CC(c3cn4cc(C(=O)Nc5cccn(C6CC6)c5=O)c(OC5CCC5)cc4n3)(CO1)C2", "pIC50", 9.22],
  ["COCCn1cc(-c2cnc(-n3ncc4cc(C#N)cnc43)cc2NC(C)C)nn1", "pIC50", 8.22],
  ["CCCc1noc(-c2cnc3c([nH]c4cc(C#N)ccc43)c2NC(C)C)n1", "pIC50", 6.44]
]}

Request: Requested field: pIC50. Item: `CC(C)Nc1cc(Nc2ccc3nsnc3c2)ncc1-c1nnc(C(=O)N2CC[C@@H](O)C2)s1`
Response: 8.60

Request: Follow-up entry: `CC(C)Nc1cc(-n2ccc3cc(C#N)cnc32)ncc1-c1cn(CCN2CCOCC2)nn1`
Response: 8.70

Request: Follow-up entry: `CC(C)Nc1cc(Nc2ccc3ncsc3n2)ncc1C(=O)NCC(F)(F)C(C)(C)O`
Response: 8.47

Request: Follow-up entry: `CC(C)Nc1cc(-n2ncc3cc(C#N)cnc32)ncc1-c1cn([C@H](CO)c2ccccc2)nn1`
Response: 8.05

Request: Follow-up entry: `Cc1cc(-c2nc(C(=O)Nc3cn4cc(C(C)(C)O)nc4nc3-c3ccccc3)co2)ccn1`
Response: 8.29

Request: Follow-up entry: `CC(C)CCNC(=O)c1cnc2c(c1NC(C)C)Oc1cc(C#N)ccc1O2`
Response: 7.64

Request: Follow-up entry: `COC(=O)N[C@H]1CC[C@H](NC(=O)c2cnc3ccc(-c4cn[nH]c4)cc3c2NC(C)C)C1`
Response: 7.91
